Study the reported pIC50 values for PAK2 (PAK65) (Homo sapiens, UniProt Q13177) given below; they originate from different publications.
pIC50: −log10 of the molar value.

molecule: CCn1c(=O)c(-c2nc(C3CCN(C(C)=O)CC3)sc2C)cc2cnc(Nc3ccc(N4CCN(C)CC4)cc3)nc21
target-or-test-system: PAK2 (PAK65) (Homo sapiens, UniProt Q13177)
Sequence (Q13177 whole entry): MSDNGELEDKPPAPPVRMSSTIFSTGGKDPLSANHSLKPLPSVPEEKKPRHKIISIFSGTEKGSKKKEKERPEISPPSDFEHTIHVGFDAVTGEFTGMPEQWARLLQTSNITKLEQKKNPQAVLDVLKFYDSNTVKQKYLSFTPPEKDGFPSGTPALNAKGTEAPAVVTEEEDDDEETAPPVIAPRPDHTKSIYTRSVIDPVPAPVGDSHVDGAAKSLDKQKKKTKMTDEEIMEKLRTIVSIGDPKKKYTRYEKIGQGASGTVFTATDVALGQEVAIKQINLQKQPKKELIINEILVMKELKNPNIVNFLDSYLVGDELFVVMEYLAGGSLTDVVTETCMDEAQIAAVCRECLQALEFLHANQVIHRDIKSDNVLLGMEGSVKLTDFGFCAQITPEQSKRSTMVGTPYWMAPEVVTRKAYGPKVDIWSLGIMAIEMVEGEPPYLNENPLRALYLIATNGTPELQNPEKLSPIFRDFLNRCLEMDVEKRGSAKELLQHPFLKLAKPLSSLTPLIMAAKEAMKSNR
pIC50: < 5.30
--
molecule: Cc1cccc(Cl)c1Cn1c(=O)ccc2cnc(Nc3ccc(N4CCN(C)CC4)cc3)nc21
target-or-test-system: PAK2 (PAK65) (Homo sapiens, UniProt Q13177)
pIC50: 5.00 to 6.00
--
molecule: CCn1c(=O)c(-c2ccc(-c3cncnc3)cc2)cc2cnc(Nc3ccc(N4CCN(C)CC4)cc3)nc21
target-or-test-system: PAK2 (PAK65) (Homo sapiens, UniProt Q13177)
pIC50: 6.30 to 7.30
--
molecule: CCn1c(=O)c(-c2ccc(-c3ncccn3)cc2Cl)cc2cnc(Nc3ccc(N4CCN(C)CC4)cc3)nc21
target-or-test-system: PAK2 (PAK65) (Homo sapiens, UniProt Q13177)
pIC50: > 7.30
--
molecule: CCN(CC)CCc1ccc(Nc2ncc3cc(-c4ccc(-c5noc(C)n5)cc4Cl)c(=O)n(CC)c3n2)cc1
target-or-test-system: PAK2 (PAK65) (Homo sapiens, UniProt Q13177)
pIC50: > 7.30
--
molecule: CCN1CCC(c2ccc(Nc3ncc4cc(-c5ccc(-c6cccnc6)cc5Cl)c(=O)n(CC)c4n3)cc2)CC1
target-or-test-system: PAK2 (PAK65) (Homo sapiens, UniProt Q13177)
pIC50: > 7.30
--
molecule: CCn1c(=O)c(-c2ccc(-c3noc(C)n3)cc2Cl)cc2cnc(Nc3ccc(C4CCNC4)c(F)c3)nc21 (centres unmarked)
target-or-test-system: PAK2 (PAK65) (Homo sapiens, UniProt Q13177)
pIC50: > 7.30
--
molecule: CCn1c(=O)c(-c2ccc(-c3noc(C)n3)cc2Cl)cc2cnc(Nc3ccc(CCN(C)C)cc3)nc21
target-or-test-system: PAK2 (PAK65) (Homo sapiens, UniProt Q13177)
pIC50: > 7.30

* * *

Study the reported IC50 values for PAK2 (PAK65) (Homo sapiens) given below; they originate from different publications.
property-label: IC50

molecule: CCn1c(=O)c(-c2ccc(-c3cccnc3F)cc2Cl)cc2cnc(Nc3ccc(C4=CCN(C)CC4)cc3)nc21
reported: < 0.05 µM
//
molecule: CN1CCN(c2ccc(Nc3ncc4ccc(=O)n(Cc5ccccc5-c5ccccc5)c4n3)cc2)CC1
reported: < 1 µM
//
molecule: CSc1cccc(F)c1Cn1c(=O)ccc2cnc(Nc3ccc(N4CCN(C)CC4)cc3)nc21
reported: < 1 µM
//
molecule: CC(=O)Nc1cc(-c2cc3cnc(Nc4ccc(CCN(C)C)cc4)nc3n(C)c2=O)c(Cl)cc1-c1cccnc1
reported: 0.05 to 0.5 µM
//
molecule: CCn1c(=O)c(-c2ccc(-c3ccc(C)nc3)cc2Cl)cc2cnc(Nc3ccc(C4CCN(C(C)C)CC4)cc3)nc21
reported: < 0.05 µM
//
molecule: CCn1c(=O)c(-c2ccc(-c3ccnc(C)c3)cc2Cl)cc2cnc(Nc3ccc(C4CCNCC4)c(F)c3)nc21
reported: 0.05 to 0.5 µM
//
molecule: CN1CCN(c2cccc(Nc3nccc(-c4ccc(NCCN)nc4)n3)c2)CC1
reported: 1 to 10 µM
//
molecule: CN1CCN(c2ccc(Nc3ncc4ccc(=O)n(CCc5ccccc5C(F)(F)F)c4n3)cc2)CC1
reported: < 1 µM
//
molecule: CCn1c(=O)c(-c2ccc(-c3nnco3)cc2Cl)cc2cnc(Nc3ccc(N4CCN(C)CC4)cc3)nc21
reported: < 0.05 µM
//
molecule: CCn1c(=O)c(-c2ccc(-c3cncs3)cc2Cl)cc2cnc(Nc3ccc(N4CCN(C(C)C)CC4)c(F)c3)nc21
reported: < 0.05 µM
//
molecule: Cc1ncc(-c2cc(Cl)c(-c3cc4cnc(Nc5ccc(C6CCN(C)CC6)cc5)nc4n(C)c3=O)cc2F)s1
reported: < 0.05 µM
//
molecule: CCn1c(=O)c(-c2ccc(-c3cccnc3)cc2Cl)cc2cnc(Nc3ccc(N4CCN(C)CC4)c(F)c3)nc21
reported: < 0.05 µM
//
molecule: CCn1c(=O)c(-c2ccc(-c3cncnc3)cc2Cl)cc2cnc(Nc3ccc(N4CCNCC4)cc3)nc21
reported: < 0.05 µM
//
molecule: CCn1c(=O)c(-c2ccc(-c3cncc(C)n3)cc2Cl)cc2cnc(NCCCOC)nc21
reported: 0.05 to 0.5 µM
//
molecule: CCn1c(=O)c(-c2ccc(-c3noc(C)n3)cc2Cl)cc2cnc(Nc3ccc(N4CCN(C(C)C)CC4)cc3)nc21
reported: < 0.05 µM
//
molecule: O=C1CCC(N2C(=O)c3cccc(NCCOCCOCCNC(=O)N4CC[C@H](NC5=Nc6cc(F)ccc6N(CC(F)F)c6ccc(Cl)cc65)C4)c3C2=O)C(=O)N1 (stereo partly shown)
reported: 6.75 µM

* * *

pIC50: −log10 of the molar value.
Study the reported pIC50 values for PAK2 (PAK65) (Homo sapiens) given below; they originate from different publications.
property-label: pIC50

compound: Cc1ncccc1-c1cc(Cl)c(-c2cc3cnc(Nc4ccc(C5CCN(C)CC5)cc4)nc3n(C)c2=O)cc1F
property-label: pIC50
reported: 6.30 to 7.30
//
compound: CN1CCN(c2ccc(Nc3ncc4ccc(=O)n(Cc5ncsc5C5CC5)c4n3)cc2)CC1
property-label: pIC50
reported: 5.30 to 6.30
//
compound: CC#Cc1cc2cnc(Nc3ccc(N4CCN(C)CC4)cc3)nc2n(Cc2c(F)cccc2C2CC2)c1=O
property-label: pIC50
reported: 6.30 to 7.30
//
compound: CCn1c(=O)c(-c2ccc(-c3noc(C)n3)cc2Cl)cc2cnc(Nc3ccc(CCN4CCOCC4)cc3)nc21
property-label: pIC50
reported: 6.30 to 7.30
//
compound: Cc1ncc(-c2ccc(-c3cc4cnc(Nc5ccc(C6CCN(C)CC6)cc5)nc4n(C)c3=O)c(Cl)c2)s1
property-label: pIC50
reported: > 7.30
//
compound: CCn1c(=O)c(-c2ccc(-c3cncs3)cc2Cl)cc2cnc(Nc3ccc(N4CCN(C)CC4)c(F)c3)nc21
property-label: pIC50
reported: > 7.30
//
compound: CCn1c(=O)c(-c2ccc(-c3cnc(C)s3)cc2Cl)cc2cnc(Nc3ccc(C4CCNCC4)cc3)nc21
property-label: pIC50
reported: > 7.30
//
compound: CCn1c(=O)c(-c2ccc(-c3cncnc3)cc2Cl)cc2cnc(Nc3ccc(C4CNCCO4)cc3)nc21 (stereo not shown)
property-label: pIC50
reported: > 7.30
//
compound: O=C1CCC(N2C(=O)c3cccc(NCCCCCCC(=O)N4CC[C@H](NC5=Nc6cc(F)ccc6N(CC(F)F)c6ccc(Cl)cc65)C4)c3C2=O)C(=O)N1 (stereo partly shown)
property-label: pIC50
reported: < 5.48
//
compound: CCn1c(=O)c(-c2ccc(-c3csc(C)n3)s2)cc2cnc(Nc3ccc(N4CCN(C)CC4)cc3)nc21
property-label: pIC50
reported: < 5.30
//
compound: CCn1c(=O)c(-c2ccc(-c3cc(C)nc(C)n3)cc2Cl)cc2cnc(Nc3ccc(C4CCN(C)CC4)cc3)nc21
property-label: pIC50
reported: > 7.30
//
compound: CCn1c(=O)c(-c2ccc(-c3ccnc(C(N)=O)c3)cc2Cl)cc2cnc(Nc3ccc(C4CCN(C)CC4)cc3)nc21
property-label: pIC50
reported: 6.30 to 7.30
//
compound: CCn1c(=O)c(-c2ccc(-c3ccnc(C)c3)cc2Cl)cc2cnc(Nc3ccc(C4CCN(C)CC4)cc3)nc21
property-label: pIC50
reported: > 7.30
//
compound: CCN1CCC(c2ccc(Nc3ncc4cc(-c5ccc(-c6ccc(C)nc6F)cc5Cl)c(=O)n(CC)c4n3)cc2)CC1
property-label: pIC50
reported: 6.30 to 7.30
//
compound: CN1CCC(c2ccc(Nc3ncc4cc(-c5cc(-c6nccc(N(C)C)n6)ccc5Cl)c(=O)n(C)c4n3)cc2)CC1
property-label: pIC50
reported: < 5.30
//
compound: CCn1c(=O)c(-c2ccc(-c3nccs3)cc2Cl)cc2cnc(Nc3ccc(N4CCN(C)CC4)cc3)nc21
property-label: pIC50
reported: > 7.30

* * *

pIC50: −log10 of the molar value.
Study the reported pIC50 values for PAK2 (PAK65) (Homo sapiens, UniProt Q13177) given below; they originate from different publications.

molecule: CN1CCN(c2ccc(Nc3ncc4ccc(=O)n(Cc5c(Cl)cccc5C5CC5)c4n3)cc2)CC1
pIC50: > 6.00

molecule: CCN1CCN(c2ccc(Nc3ncc4cc(-c5ccc(-c6scnc6C)cc5Cl)c(=O)n(CC)c4n3)cc2)CC1
pIC50: > 7.30

molecule: CN(C)CCc1ccc(Nc2ncc3cc(-c4cc(N(C)C)c(-c5cccnc5)cc4Cl)c(=O)n(C)c3n2)cc1
pIC50: 6.30 to 7.30

molecule: CN1CCN(c2ccc(Nc3nccc(-c4ccc(N)nc4)n3)cc2)CC1
pIC50: 5.00 to 6.00

molecule: Cc1cc(-c2nccnc2C)ccc1-c1cc2cnc(Nc3ccc(C4CCN(C)CC4)cc3)nc2n(C)c1=O
pIC50: > 7.30

molecule: CCn1c(=O)c(-c2ccc(-c3cccnc3C)cc2C)cc2cnc(Nc3ccc(C4CCN(C)CC4)cc3)nc21
pIC50: 6.30 to 7.30

molecule: CCn1c(=O)c(-c2ccc(-c3nccnc3C)cc2Cl)cc2cnc(NCCOC)nc21
pIC50: 6.30 to 7.30

molecule: CCn1c(=O)c(-c2ccc(-c3noc(C)n3)s2)cc2cnc(Nc3ccc(N4CCN(C)CC4)cc3)nc21
pIC50: < 5.30

molecule: O=C1CCC(N2C(=O)c3cccc(NCCCCCNC(=O)N4CC[C@H](NC5=Nc6cc(F)ccc6N(CC(F)F)c6ccc(Cl)cc65)C4)c3C2=O)C(=O)N1 (stereo partly shown)
pIC50: < 5.00

molecule: CCn1c(=O)c(-c2ccc(-c3ccc(C(=O)NC)nc3)cc2Cl)cc2cnc(Nc3ccc(C4CCN(C)CC4)cc3)nc21
pIC50: 6.30 to 7.30

molecule: CCn1c(=O)c(-c2ccc(-c3noc(C)n3)cc2Cl)cc2cnc(Nc3ccc(C4CCN(C)CC4)cc3)nc21
pIC50: > 7.30

molecule: CCn1c(=O)c(-c2ccc(-c3cccs3)s2)cc2cnc(Nc3ccc(N4CCN(C)CC4)cc3)nc21
pIC50: < 5.30

molecule: CCn1c(=O)c(-c2ccc(-c3cccs3)cc2Cl)cc2cnc(Nc3ccc(N4CCN(C)CC4)cc3)nc21
pIC50: > 7.30

molecule: O=c1ccc2cnc(Nc3ccc(N4CCNCC4)c(F)c3)nc2n1Cc1ccccc1C(F)(F)F
pIC50: > 6.00

molecule: CN1CCN(c2ccc(Nc3nccc(-c4ccc(NCCCN)nc4)n3)cc2)CC1
pIC50: 5.00 to 6.00

molecule: CCN1CCC(c2ccc(Nc3ncc4cc(-c5ccc(-c6noc(C)n6)cc5Cl)c(=O)n(C)c4n3)cc2)CC1
pIC50: > 7.30
